Target: T1, recombinant human c-Met/Fc chimera (R&D systems) (human)
T1 construct: R&D Systems 358-MT/CF, expressed in NS0 cells; also called hc-Met/Fc; hu c-Met/Fc
T1 sequence (chain, as listed by the source mutant limits assumed): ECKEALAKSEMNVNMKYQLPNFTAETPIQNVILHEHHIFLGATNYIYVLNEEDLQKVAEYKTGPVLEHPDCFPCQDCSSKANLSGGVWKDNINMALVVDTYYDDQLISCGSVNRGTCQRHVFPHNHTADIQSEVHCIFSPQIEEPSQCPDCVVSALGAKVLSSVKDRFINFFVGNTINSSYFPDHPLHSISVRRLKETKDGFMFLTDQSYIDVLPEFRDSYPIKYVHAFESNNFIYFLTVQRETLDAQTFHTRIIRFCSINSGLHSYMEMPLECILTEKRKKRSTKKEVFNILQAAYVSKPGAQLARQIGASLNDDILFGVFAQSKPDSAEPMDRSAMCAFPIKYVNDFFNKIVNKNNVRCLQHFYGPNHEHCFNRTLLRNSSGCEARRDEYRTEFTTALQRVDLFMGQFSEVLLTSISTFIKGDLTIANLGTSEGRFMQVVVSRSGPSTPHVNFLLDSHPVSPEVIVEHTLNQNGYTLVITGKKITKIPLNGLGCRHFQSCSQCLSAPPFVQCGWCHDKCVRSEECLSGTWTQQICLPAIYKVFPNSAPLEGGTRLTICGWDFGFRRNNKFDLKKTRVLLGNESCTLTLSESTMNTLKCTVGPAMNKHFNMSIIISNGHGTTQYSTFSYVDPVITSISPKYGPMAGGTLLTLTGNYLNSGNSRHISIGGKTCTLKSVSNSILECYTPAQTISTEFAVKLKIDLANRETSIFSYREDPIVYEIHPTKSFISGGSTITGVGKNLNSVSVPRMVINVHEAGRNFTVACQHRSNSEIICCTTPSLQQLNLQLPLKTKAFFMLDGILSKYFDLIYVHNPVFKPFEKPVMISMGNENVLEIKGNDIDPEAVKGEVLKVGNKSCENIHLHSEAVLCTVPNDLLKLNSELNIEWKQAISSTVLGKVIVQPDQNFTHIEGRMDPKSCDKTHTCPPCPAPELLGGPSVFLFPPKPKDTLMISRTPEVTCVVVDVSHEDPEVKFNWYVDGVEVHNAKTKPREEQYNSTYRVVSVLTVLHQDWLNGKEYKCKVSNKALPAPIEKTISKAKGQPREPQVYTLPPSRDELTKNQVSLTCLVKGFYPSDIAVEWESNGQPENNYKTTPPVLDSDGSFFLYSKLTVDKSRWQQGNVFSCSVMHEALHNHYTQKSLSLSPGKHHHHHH
Test: HGF-competition Alphascreen
IC50 strictly under 8 nM means t; at 8 nM or over means f.

binder | category
A007900738 (VHH, 33H10 variant; the entry holds the 3xFLAG-His6 tag) VHH: EVQLVESGGGLVQPGGSLRLSCAASGFTFDDYAIGWFRQAPGEEREGVSSISSTYGLTYYADSVKGRFTISSSNSKNTVYLQMNNLKPEDTAVYYCAATPIERLGLDAYEYDYWGQGTLVTVSS | t

Item A007900748 (VHH, 33H10 variant; the entry holds the 3xFLAG-His6 tag) VHH: EVQLVESGGGLVQPGGSLRLSCAASGFTFDDYAIGWFRQAPGKEREGVSSISSTYGLTYYADSVKGRFTISSDNSKNTVYLQMNNLKPEDTAVYYCAATPIERLGLDAYEYDYWGQGTLVTVSS : IC50 beneath 8 nM, strictly?
t

Hi there! Is IC50 for A007900752 (VHH, 33H10 variant; the entry holds the 3xFLAG-His6 tag) VHH: EVQLVESGGGLVQPGGSLRLSCAASGFTFDDYAIGWFRQAPGKEREGVSSISSTYGLTYYADSVKGRFTISRSNSKNTVYLQMNSLKPEDTAVYYCAATPIERLGLDAYEYDYWGQGTLVTVSS below 8 nM, do you know?
f

Lab note: confirm whether the reported IC50 for this binder is below 8 nM, equality not counting. binder: A007900750 (VHH, 33H10 variant; the entry holds the 3xFLAG-His6 tag) VHH: EVQLVESGGGLVQPGGSLRLSCAASGFTFDDYAIGWFRQAPGKEREGVSSISSTYGLTYYADSVKGRFTISRSNSKNTVYLQMNNLKPEDTAVYYCAATPIERLGLDAYEYDYWGQGTLVTVSS
f

I wonder whether A007900744 (VHH, 33H10 variant; the entry holds the 3xFLAG-His6 tag) VHH: VQLVESGGGLVQPGGSLRLSCAASGFTFDDYAIGWFRQAPGEEREGVSSISSTYGLTYYADSVKGRFTISRSNSKNTVYLQMNSLKPEDTAVYYCAATPIERLGLDAYEYDYWGQGTLVTVSS has IC50 below 8 nM. Can you tell?
f

API: query returns whether the binder falls strictly under 8 nM in IC50. Query: A007900742 (VHH, 33H10 variant; the entry holds the 3xFLAG-His6 tag) VHH: EVQLVESGGGLVQPGGSLRLSCAASGFTFDDYAIGWFRQAPGEEREGVSSISSTYGLTYYADSVKGRFTISRSNSKNTVYLQMNNLKPEDTAVYYCAATPIERLGLDAYEYDYWGQGTLVTVSS
f

Dear reviewer, please state whether A007900745 (VHH, 33H10 variant; the entry holds the 3xFLAG-His6 tag) VHH: EVQLVESGGGLVQPGGSLRLSCAASGFTFDDYAIGWFRQAPGEEREGVSSISSTYGLTYYADSVKGRFTISRDNSKNTVYLQMNSLKPEDTAVYYCAATPIERLGLDAYEYDYWGQGTLVTVSS has IC50 strictly beneath 8 nM.
f

Please indicate whether the reported IC50 of A007900743 (VHH, 33H10 variant; the entry holds the 3xFLAG-His6 tag) VHH: EVQLVESGGGLVQPGGSLRLSCAASGFTFDDYAIGWFRQAPGEEREGVSSISSTYGLTYYADSVKGRFTISRDNSKNTVYLQMNNLKPEDTAVYYCAATPIERLGLDAYEYDYWGQGTLVTVSS is strictly below 8 nM.
f

Hi there! Is IC50 for A007900741 (VHH, 33H10 variant; the entry holds the 3xFLAG-His6 tag) VHH: EVQLVESGGGLVQPGGSLRLSCAASGFTFDDYAIGWFRQAPGEEREGVSSISSTYGLTYYADSVKGRFTISSDNSKNTVYLQMNSLKPEDTAVYYCAATPIERLGLDAYEYDYWGQGTLVTVSS below 8 nM, do you know?
t
